- test-description: Phototoxicity (glow lamp) and dark toxicity by hemolysis of bovine erythrocytes
- Format: cell-based
- experimental-conditions: bovine, bovine erythrocytes; Glow Lamp, 0.5 μM, exposure 60 min
- Method: Bovine erythrocytes were isolated from blood plasma stored with sodium citrate. 1 mL of bovine blood was treated at centrifuge (3,000 rpm) for 10 min to precipitate erythrocytes. The supernatant was decanted, 2 mL of physiological solution were added, treated and erythrocytes were precipitated with centrifuge. […] The hemolysis level (percentage of hemolyzed cells) was determined as the ratio of absorbances of the supernatant and a solution of 100% hemolysed cells. […]
measured-property: hemolysis at 60 min, 0.5 µM (%)
Your answer is read as %, so omit the unit and give the number.

Which hemolysis at 60 min, 0.5 µM value belongs to CN1\C(=C/C=C/C=C/C=C/C2=[N+](C)c3cc(I)cc(I)c3C2(C)CCCCCC(=O)O)C(C)(CCCCCC(=O)O)c2c(I)cc(I)cc21.[I-] (stereo not shown) ?
75
